Field: IC50. Provide a value for each of the molecules that follow.
System: NCI-H2052;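 also: growth inhibition of NCI-H2052 cells, read out with a cell viability assay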
METHOD: cells
Type: functional, cell-based
RUN CONDITIONS: Homo sapiens
Description: SANGER: Inhibition of human NCI-H2052 cell growth in a cell viability assay.

Provide the reported IC50 of each entry below, same order.
1. COc1ccc(-c2cc3nccn3c(Nc3ncccc3C(N)=O)n2)cc1OC
2. CO[C@@H]1[C@H](N(C)C(=O)c2ccccc2)C[C@H]2O[C@]1(C)n1c3ccccc3c3c4c(c5c6ccccc6n2c5c31)C(=O)NC4
3. NC(=O)Nc1cc(-c2cccc(F)c2)sc1C(=O)N[C@H]1CCCNC1
4. CN(NC(=O)CC(=O)NN(C)C(=S)c1ccccc1)C(=S)c1ccccc1

1: > 8000 nM; 2: > 512 nM; 3: > 2000 nM; 4: 63.3 nM

====

Field: pIC50. Provide a value for each of the compounds that follow.
Test system: DOK;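 also: cell viability assay read-out, values reflect inhibition of cell growth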
METHOD: cells
Format: functional, cell-based
RUN CONDITIONS: Homo sapiens
Description: SANGER: Inhibition of human DOK cell growth in a cell viability assay.
Answers are plain numbers, as −log10 of the molar value.

COMPOUND: CN(NC(=O)CC(=O)NN(C)C(=S)c1ccccc1)C(=S)c1ccccc1 [ELESCLOMOL]
pIC50: 7.75

Item CS(=O)(=O)N1CCN(Cc2cc3nc(-c4cccc5[nH]ncc45)nc(N4CCOCC4)c3s2)CC1 [PICTILISIB] : provide pIC50
6.52

====

System: NCI-H1792;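 also: growth inhibition of human NCI-H1792 cells, read out as cell viability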
METHOD: cells
Type: functional, cell-based
RUN CONDITIONS: Homo sapiens
Description: SANGER: Inhibition of human NCI-H1792 cell growth in a cell viability assay.
pIC50: −log10 of the molar value.
VALUE TYPE: pIC50

These solved cases illustrate the format of a correct answer.
COMPOUND: CC1=C(/C=C/C(C)=C/C=C/C(C)=C/C(=O)O)C(C)(C)CCC1
RESULT: < 5.00
--
COMPOUND: NC(=O)c1ccc(N(C(N)=O)c2c(F)cccc2F)nc1-c1ccc(F)cc1F
RESULT: < 5.70

Provide the reported pIC50 of each entry below, same order.
1. O=C1NC(=O)c2c1c(-c1ccccc1Cl)cc1[nH]c3ccc(O)cc3c21
2. NC(=O)Nc1cc(-c2cccc(F)c2)sc1C(=O)N[C@H]1CCCNC1
3. CN(NC(=O)CC(=O)NN(C)C(=S)c1ccccc1)C(=S)c1ccccc1
4. CS(=O)(=O)N1CCN(Cc2cc3nc(-c4cccc5[nH]ncc45)nc(N4CCOCC4)c3s2)CC1

1. < 5.70
2. 6.03
3. < 6.70
4. < 5.40

For NCI-H1792, give the measured pIC50 of the entry COC(=O)[C@H](CCSC)NC(=O)c1ccc(NC[C@@H](N)CS)cc1-c1ccccc1
< 5.99

====

Test system: CP67-MEL
METHOD: SANGER: Inhibition of human CP67-MEL cell growth in a cell viability assay.
Type: functional, cell-based
Where a SMILES comes first, the peptide text is derived from it. The star is where a group is joined. Cbz = O=C(OCc1ccccc1)*
VALUE TYPE: pIC50
Give bare numbers, as −log10 of the molar value.

COMPOUND: CC(C)C[C@@H](C=O)NC(=O)[C@H](CC(C)C)NC(=O)[C@H](CC(C)C)NC(=O)OCc1ccccc1 [MG-132] (Cbz-Leu-Leu-Leu-aldehyde)
pIC50: 6.57

Continue with the next compound.
Item Cc1cc(N2CCOCC2)cc2[nH]c(-c3c(NC[C@@H](O)c4cccc(Cl)c4)cc[nH]c3=O)nc12 : provide pIC50
6.05

Cited source: ChEMBL document CHEMBL1201861
